Every entry's value here was drawn from patent US12077503B2.

# System: barnyardgrass (Echinochloa crus-galli)
# ASSAY METHOD TEXT: Test A preemergence
# Assay type: in vivo
# SETUP CONDITIONS: Echinochloa crus-galli, pre-emergence, 240 h, 125 g ai/ha, Preemergence, visual injury rating after approximately 10 d; read-out: Barnyardgrass plant response rating (0 to 100 scale, 0 is no effect, 100 is complete control)
MEASUREMENT TYPE: pest or weed control at 125 g/ha (%)
Give your result in % as a bare value.

Answered cases to consult:
1) COc1cc(OC)cc([C@H]2CN(C)C(=O)[C@@H]2C(=O)Nc2ccccc2SC)c1 [Compound 981] ... 90
2) CCOc1cccc([C@H]2CN(C)C(=O)[C@@H]2C(=O)Nc2ccc(F)cc2F)c1 [Compound 963] ... 90
3) CC(C)COc1cccc([C@H]2CNC(=O)[C@@H]2C(=O)Nc2ccccc2F)c1 [Compound 964] ... 90
4) CSc1ccccc1NC(=O)[C@H]1C(=O)N(C)C[C@@H]1c1cc(C)c(Br)c(C)c1 [Compound 1025] ... 70
5) CSc1ccccc1NC(=O)[C@H]1C(=O)N(C2CC2)CC[C@@H]1c1ccc(F)cc1 [Compound 1005] ... 0
6) O=C1NC[C@H](c2cc(C(F)(F)F)cs2)[C@H]1C(=O)Nc1cccc(F)c1F [Compound 961] ... 90
7) COc1ccc([C@H]2CN(C)C(=O)[C@@H]2C(=O)Nc2ccccc2F)cc1C(F)(F)F [Compound 984] ... 100
8) COc1cccc([C@H]2CN(C)C(=O)[C@@H]2C(=O)Nc2cccc(F)c2F)c1 [Compound 1062] ... 100

Quick one: pest or weed control at 125 g/ha of O=C(Nc1ccccc1F)[C@H]1C(=O)N(C2CC2)CC[C@@H]1c1ccccc1 [Compound 1031] ? 0

Quick one: pest or weed control at 125 g/ha of CC(=O)Oc1ccc(F)c(NC(=O)[C@H]2C(=O)N(C)C[C@@H]2c2cc(F)cc(F)c2)c1 [Compound 1019] ? 0

Quick one: pest or weed control at 125 g/ha of CCc1cccc([C@H]2CCNC(=O)[C@@H]2C(=O)Nc2cccc(F)c2F)c1 [Compound 1058] ? 90

Quick one: pest or weed control at 125 g/ha of CCOc1cccc([C@H]2CNC(=O)[C@@H]2C(=O)Nc2ccccc2F)c1 [Compound 949] ? 70

Quick one: pest or weed control at 125 g/ha of COCc1ccccc1NC(=O)[C@H]1C(=O)N(C)C[C@@H]1c1cccc(C(F)(F)F)c1 (racemic) [Compound 1060] ? 100

----------
# Tested on: pigweed (Amaranthus retroflexus)
# ASSAY METHOD TEXT: Test A preemergence
# Format: in vivo
# SETUP CONDITIONS: Amaranthus retroflexus, pre-emergence, 240 h, 125 g ai/ha, Preemergence, visual injury rating after approximately 10 d; read-out: Pigweed plant response rating (0 to 100 scale, 0 is no effect, 100 is complete control)
Consider the following molecules and their measured pest or weed control at 125 g/ha readings.
Give your result in % as a bare value.

Answered cases to consult:
1) Cc1ccc([C@H]2CN(C)C(=O)[C@@H]2C(=O)Nc2cccc(F)c2C)cc1Cl ... 30
2) CSc1ccccc1NC(=O)[C@H]1C(=O)NC[C@@H]1c1ccc(C(F)(F)F)cn1 ... 0
3) Cc1c(F)cccc1NC(=O)[C@H]1C(=O)N(C)C[C@@H]1c1cc(F)cc(Cl)c1 ... 0
4) CN1C[C@H](c2ccc(C(F)(F)F)cc2)[C@@H](C(=O)Nc2ccccc2Br)C1=O ... 40

Quick one: pest or weed control at 125 g/ha of "CCOc1cccc([C@H]2CN(C)C(=O)[C@@H]2C(=O)Nc2ccc(F)cc2F)c1" ? 0

Quick one: pest or weed control at 125 g/ha of "CC(C)COc1cccc([C@H]2CN(C)C(=O)[C@@H]2C(=O)Nc2ccc(F)cc2F)c1" ? 0
